Task for the reader: assign each of the following compounds its reported pKi.
# measured.target: GCN2 kinase (Homo sapiens, UniProt Q9P2K8)
# Sequence (Q9P2K8 whole entry): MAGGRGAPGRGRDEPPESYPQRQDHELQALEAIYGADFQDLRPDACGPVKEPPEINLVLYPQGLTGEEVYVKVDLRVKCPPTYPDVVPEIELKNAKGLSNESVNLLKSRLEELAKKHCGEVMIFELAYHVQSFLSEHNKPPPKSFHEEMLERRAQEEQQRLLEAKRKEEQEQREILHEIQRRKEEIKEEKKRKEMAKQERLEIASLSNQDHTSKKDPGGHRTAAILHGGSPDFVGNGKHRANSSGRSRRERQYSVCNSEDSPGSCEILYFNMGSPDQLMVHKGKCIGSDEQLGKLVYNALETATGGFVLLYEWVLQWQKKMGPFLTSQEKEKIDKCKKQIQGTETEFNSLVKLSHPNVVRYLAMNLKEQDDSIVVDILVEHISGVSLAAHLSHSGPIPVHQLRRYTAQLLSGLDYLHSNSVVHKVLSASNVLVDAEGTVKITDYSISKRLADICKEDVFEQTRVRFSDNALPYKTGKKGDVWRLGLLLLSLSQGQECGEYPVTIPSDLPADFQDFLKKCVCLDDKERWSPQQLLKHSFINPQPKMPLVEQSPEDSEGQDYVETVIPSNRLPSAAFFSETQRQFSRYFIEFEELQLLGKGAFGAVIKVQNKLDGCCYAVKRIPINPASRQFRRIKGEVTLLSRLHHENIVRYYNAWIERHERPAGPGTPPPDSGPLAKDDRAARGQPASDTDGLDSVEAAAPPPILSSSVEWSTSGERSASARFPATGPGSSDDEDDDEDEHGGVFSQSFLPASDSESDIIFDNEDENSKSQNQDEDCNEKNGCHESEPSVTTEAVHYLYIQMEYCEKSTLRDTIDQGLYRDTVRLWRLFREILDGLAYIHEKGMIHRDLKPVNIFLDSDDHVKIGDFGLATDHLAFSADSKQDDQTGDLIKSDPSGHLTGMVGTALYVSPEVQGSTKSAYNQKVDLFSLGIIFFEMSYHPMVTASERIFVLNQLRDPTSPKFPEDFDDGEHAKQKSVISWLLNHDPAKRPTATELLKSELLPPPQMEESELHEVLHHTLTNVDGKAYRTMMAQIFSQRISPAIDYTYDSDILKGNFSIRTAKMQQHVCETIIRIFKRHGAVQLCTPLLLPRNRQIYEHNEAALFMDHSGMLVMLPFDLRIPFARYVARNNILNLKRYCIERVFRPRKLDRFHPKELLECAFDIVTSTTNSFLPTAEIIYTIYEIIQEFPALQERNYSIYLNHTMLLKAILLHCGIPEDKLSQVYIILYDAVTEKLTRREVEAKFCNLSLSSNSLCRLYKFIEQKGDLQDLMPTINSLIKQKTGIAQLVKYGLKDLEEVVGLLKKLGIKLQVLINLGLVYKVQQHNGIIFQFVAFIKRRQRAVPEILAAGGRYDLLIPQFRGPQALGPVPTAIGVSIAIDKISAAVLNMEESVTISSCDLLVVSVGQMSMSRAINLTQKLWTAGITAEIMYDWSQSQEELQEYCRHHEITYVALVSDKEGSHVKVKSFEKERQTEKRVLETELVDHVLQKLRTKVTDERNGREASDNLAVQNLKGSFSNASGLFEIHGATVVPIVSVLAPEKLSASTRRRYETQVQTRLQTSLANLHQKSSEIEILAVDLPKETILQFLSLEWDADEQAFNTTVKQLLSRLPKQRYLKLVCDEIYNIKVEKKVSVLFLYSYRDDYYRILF
# procedure.details: GCN2 enzyme inhibition assay (Transcreener ADP2 fluorescence polarization)
# Assay type: biochemical
# measurement.conditions: Enzyme activity for compounds of Formula IV; Ki(app), 280 μM ATP, 25° C.
pKi: −log10 of the molar value.

compound | measured.target | outcome.measure | meas.value
FC(F)(F)c1cn2c(-c3nccc(N4CCCC(c5ncco5)C4)n3)cnc2cn1 (centres unmarked) | GCN2 kinase (Homo sapiens, UniProt Q9P2K8) | pKi | 6.00 to 7.00
CC1CCN(c2ccnc(-c3cnc4cnc(C(F)(F)F)cn34)n2)CC1 | GCN2 kinase (Homo sapiens, UniProt Q9P2K8) | pKi | 6.00 to 7.00
CC(=O)N1CCN(c2ccnc(-c3cnc4cnc(Cl)cn34)n2)CC1 | GCN2 kinase (Homo sapiens, UniProt Q9P2K8) | pKi | 6.00 to 7.00
FC(F)c1cn2c(-c3nccc(N4CCCC(c5cccnc5)C4)n3)cnc2cn1 (centres unmarked) | GCN2 kinase (Homo sapiens, UniProt Q9P2K8) | pKi | 6.00 to 7.00
CC1C(c2cn[nH]c2)CCN1c1ccnc(-c2cnc3cnc(C(F)(F)F)cn23)n1 (centres unmarked) [IV-688] | GCN2 kinase (Homo sapiens, UniProt Q9P2K8) | pKi | 7.00 to 8.00
CC1CN(c2ccnc(-c3cnc4cnc(C(F)(F)F)cn34)n2)CC(c2cn[nH]c2)O1 (centres unmarked) [IV-10] | GCN2 kinase (Homo sapiens, UniProt Q9P2K8) | pKi | > 8.00
CC1CN(c2nc(-c3cnc4cnc(C(F)(F)F)cn34)ncc2F)CC(c2cn[nH]c2)O1 (single isomer, unassigned) [IV-334] | GCN2 kinase (Homo sapiens, UniProt Q9P2K8) | pKi | 6.00 to 7.00
O=C1NCCC12CCN(c1ccnc(-c3cnc4cnc(C(F)(F)F)cn34)n1)C2 (centres unmarked) | GCN2 kinase (Homo sapiens, UniProt Q9P2K8) | pKi | 6.00 to 7.00

Hi there! I need pKi for each item below, if you can.
1. CN1CC2(CCN(c3ccnc(-c4cnc5cnc(C(F)(F)F)cn45)n3)C2)OC1=O (centres unmarked)
2. CC1CN(c2cncc(-c3cnc4cnc(C(F)(F)F)cn34)n2)C(C)C(c2cn[nH]c2)N1 (single isomer, unassigned) [IV-650]
3. FC(F)OC1CC(c2cn[nH]c2)CN(c2ccnc(-c3cnc4cnc(C(F)(F)F)cn34)n2)C1 (centres unmarked) [IV-466]
4. NC(=O)c1cn2c(-c3nccc(N4CCOC(c5cn[nH]c5)C4)n3)cnc2cn1 (centres unmarked)
5. CC1C(C(N)=O)CCCN1c1ccnc(-c2cnc3cnc(C(F)F)cn23)n1 (centres unmarked) [IV-109]

["6.00 to 7.00", "> 8.00", "> 8.00", "7.00 to 8.00", "7.00 to 8.00"]

###

# measured.target: UniProt:Q9P2K8
# procedure.details: GCN2 enzyme inhibition assay (Transcreener ADP2 fluorescence polarization)
# Type: biochemical
# measurement.conditions: compounds of Formula III; 280 μM ATP, 4 nM GCN2 kinase
pKi: −log10 of the molar value.
outcome.measure: pKi

Hi there! I need pKi for each item below, if you can.
1. CC1CN(c2cc(-c3cnn4ccc(C(F)F)nc34)ccn2)CC(CNS(C)(=O)=O)C1(F)F (centres unmarked)
2. C[C@H]1CN(c2cc(-c3cnn4ccc(C(F)F)nc34)ncn2)C[C@@H](CNS(C)(=O)=O)C1(F)F
3. C[C@H]1CN(c2cc(-c3cnn4cc(F)c(C(F)F)nc34)ncn2)C[C@@H](CNS(C)(=O)=O)C1(F)F
4. O=C1CCCC2CN(c3cc(-c4cnn5cccnc45)ccn3)CCN12 (centres unmarked)
5. CS(=O)(=O)NC[C@@H]1CN(c2cc(-c3cnn4ccc(C(F)F)nc34)ccn2)CCO1
6. CC1CC(N=S(C)(C)=O)CN(c2cc(-c3cnn4ccc(C(F)F)nc34)ncn2)C1 (centres unmarked)
7. CS(=O)(=O)NC[C@@H]1CN(c2cc(-c3cnn4ccc(C(F)F)nc34)ncn2)CCO1
8. CS(=O)(=O)NC[C@H]1CN(c2cc(-c3cnn4cc(F)c(C(F)F)nc34)ncn2)CCO1

1: > 8.00; 2: > 8.00; 3: > 8.00; 4: < 6.00; 5: > 8.00; 6: 6.00 to 8.00; 7: > 8.00; 8: 6.00 to 8.00

Origin of the recorded values: patent US10988477B2
